Readings of IC50 for the listed compounds
target: RAF proto-oncogene serine/threonine-protein kinase (Homo sapiens, UniProt P04049); assay: Inhibitory activity against recombinant human RAF proto-oncogene serine/threonine-protein kinase
Sequence (P04049 whole entry): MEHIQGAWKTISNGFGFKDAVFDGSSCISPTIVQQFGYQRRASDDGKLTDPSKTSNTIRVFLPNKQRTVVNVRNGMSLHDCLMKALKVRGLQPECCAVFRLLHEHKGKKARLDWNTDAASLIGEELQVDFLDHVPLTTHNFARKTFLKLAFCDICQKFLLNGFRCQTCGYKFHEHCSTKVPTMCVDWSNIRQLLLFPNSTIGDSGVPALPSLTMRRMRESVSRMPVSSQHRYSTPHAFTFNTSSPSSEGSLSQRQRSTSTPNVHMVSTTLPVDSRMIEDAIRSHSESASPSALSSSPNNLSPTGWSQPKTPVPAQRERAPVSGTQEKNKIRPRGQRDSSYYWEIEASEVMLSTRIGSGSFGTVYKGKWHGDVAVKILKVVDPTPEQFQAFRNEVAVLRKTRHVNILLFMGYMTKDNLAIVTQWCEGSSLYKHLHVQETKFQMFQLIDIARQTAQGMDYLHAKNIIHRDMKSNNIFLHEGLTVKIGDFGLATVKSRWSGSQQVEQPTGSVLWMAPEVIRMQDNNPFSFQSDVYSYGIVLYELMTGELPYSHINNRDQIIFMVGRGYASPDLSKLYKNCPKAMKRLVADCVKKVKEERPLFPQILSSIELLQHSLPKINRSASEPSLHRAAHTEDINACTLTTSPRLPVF
I only need the number, in nM, no unit after it.

compound=c1ccc(-c2nc(-c3ccccc3)c(-c3ccncc3)[nH]2)cc1 numeric_readout=380
compound=c1ccc(-c2nc(-c3ccccc3)c(-c3ccncn3)[nH]2)cc1 numeric_readout=5000
compound=Oc1ccc(-c2[nH]c(-c3ccccc3)nc2-c2ccncc2)cc1 numeric_readout=390

Return IC50 for the following compound: COc1ccc(-c2nc(-c3ccccc3)[nH]c2-c2ccncc2)cc1
950

Determine from records and report IC50 for Clc1cccc(-c2nc(-c3ccccc3)[nH]c2-c2ccncc2)c1
90

Quick one: give measured IC50 for Clc1ccccc1-c1nc(-c2ccccc2)[nH]c1-c1ccncc1
610

Report IC50 for N#Cc1ccc(-c2[nH]c(-c3ccccc3)nc2-c2ccncc2)cc1
86

Find the measured IC50 of C[C@@H](Nc1nccc(-c2[nH]c(C3CCNCC3)nc2-c2cccc(C(F)(F)F)c2)n1)c1ccccc1 and report it.
4500

Quote IC50 reported for Fc1ccc(-c2[nH]c(C3CCCNC3)nc2-c2ccncc2)cc1 (stereo not given) please.
110

Report measured IC50; entry is Fc1cccc(-c2[nH]c(-c3ccccc3)nc2-c2ccncc2)c1
3000

Give a short answer stating reported IC50 for c1ccc(-c2ccc(-c3[nH]c(-c4ccccc4)nc3-c3ccncc3)cc2)cc1 .
2500

Read off the recorded IC50 for Clc1ccc(-c2nc(-c3ccccc3)[nH]c2-c2ccncc2)cc1
56

Assign IC50 to the following record: Fc1ccc(-c2[nH]c(C3CCNCC3)nc2-c2ccncc2)cc1
80

Give a short answer stating reported IC50 for Clc1ccc(-c2[nH]c(-c3ccccc3)nc2-c2ccncc2)cc1Cl .
20

Let me know recorded IC50 for Clc1cc(Cl)cc(-c2[nH]c(-c3ccccc3)nc2-c2ccncc2)c1 , thanks.
1600

Give me measured IC50, please, for this compound: COc1cccc(-c2[nH]c(-c3ccccc3)nc2-c2ccncc2)c1
210

Retrieve IC50 measured for COc1ccc(CNc2nccc(-c3[nH]c(-c4ccccc4)nc3-c3ccccc3)n2)cc1 and print it.
1000

Look up and state reported IC50 for c1ccc(-c2nc(-c3ccncc3)c(-c3ccc(C4CCCCC4)cc3)[nH]2)cc1
570

Respond only with IC50 recorded for Nc1nccc(-c2[nH]c(-c3ccccc3)nc2-c2ccccc2)n1
750

Give me measured IC50, please, for this compound: Fc1ccc(-c2[nH]c(C3CCCCC3)nc2-c2ccncc2)cc1
135

Identify measured IC50 corresponding to FC(F)(F)c1ccc(-c2[nH]c(-c3ccccc3)nc2-c2ccncc2)cc1
1400

Consider the compound Oc1cccc(-c2nc(-c3ccccc3)[nH]c2-c2ccncc2)c1 . State its measured IC50.
23

State its IC50: CNc1nccc(-c2[nH]c(-c3ccccc3)nc2-c2ccccc2)n1
2100

Give me measured IC50, please, for this compound: Fc1ccc(-c2nc[nH]c2-c2ccncc2)cc1
1300
